Ki listing for selected molecules.
TARGET OR TEST SYSTEM: Androgen receptor (Homo sapiens, UniProt P10275)
Sequence (P10275 whole entry): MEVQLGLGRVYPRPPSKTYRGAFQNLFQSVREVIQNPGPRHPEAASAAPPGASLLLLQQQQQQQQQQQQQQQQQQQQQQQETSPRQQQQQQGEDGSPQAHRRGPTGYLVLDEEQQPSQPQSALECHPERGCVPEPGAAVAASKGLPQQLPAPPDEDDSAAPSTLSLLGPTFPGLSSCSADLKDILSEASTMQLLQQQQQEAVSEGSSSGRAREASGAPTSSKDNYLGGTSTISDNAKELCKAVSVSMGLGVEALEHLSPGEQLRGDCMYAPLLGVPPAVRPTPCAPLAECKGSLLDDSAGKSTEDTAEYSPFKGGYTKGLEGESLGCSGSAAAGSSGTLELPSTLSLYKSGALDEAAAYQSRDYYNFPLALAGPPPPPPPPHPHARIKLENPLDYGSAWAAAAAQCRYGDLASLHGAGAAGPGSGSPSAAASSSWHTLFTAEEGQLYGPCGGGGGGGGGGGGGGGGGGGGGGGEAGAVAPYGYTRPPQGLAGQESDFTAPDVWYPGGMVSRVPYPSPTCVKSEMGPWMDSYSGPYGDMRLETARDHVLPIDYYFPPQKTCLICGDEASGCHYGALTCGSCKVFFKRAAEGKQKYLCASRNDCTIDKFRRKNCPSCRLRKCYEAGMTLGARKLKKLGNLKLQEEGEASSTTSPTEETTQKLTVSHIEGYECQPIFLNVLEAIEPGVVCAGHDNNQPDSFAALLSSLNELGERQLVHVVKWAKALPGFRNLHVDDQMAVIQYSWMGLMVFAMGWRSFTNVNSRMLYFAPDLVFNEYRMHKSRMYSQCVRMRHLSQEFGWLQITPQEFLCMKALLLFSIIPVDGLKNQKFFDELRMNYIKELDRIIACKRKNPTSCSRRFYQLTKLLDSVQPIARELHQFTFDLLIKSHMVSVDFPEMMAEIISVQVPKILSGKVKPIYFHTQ

{"columns": ["SMILES NOTATION", "Ki"],
 "data": [
  ["CC1=CC(C)(C)Nc2ccc3c(c21)/C(=C/c1ccccc1)Oc1c(F)cccc1-3", "1460 nM"],
  ["CC1=CC(C)(C)Nc2ccc3c(c21)/C(=C/c1ccco1)Oc1ccc(F)cc1-3", "> 1000 nM"],
  ["CSc1ccccc1/C=C1\\Oc2ccc(F)cc2-c2ccc3c(c21)C(C)=CC(C)(C)N3", "> 1000 nM"],
  ["CC1=CC(C)(C)Nc2ccc3c(c21)/C(=C/c1ccncc1C)Oc1ccc(F)cc1-3", "> 1000 nM"],
  ["CC1=CC(C)(C)Nc2ccc3c(c21)/C(=C/c1ccsc1)Oc1ccc(F)cc1-3", "669 nM"],
  ["CC1=CC(C)(C)Nc2ccc3c(c21)/C(=C/c1ncccc1C)Oc1ccc(F)cc1-3", "> 1000 nM"],
  ["CC1=CC(C)(C)Nc2ccc3c(c21)/C(=C/c1ccccc1C)Oc1c(F)cccc1-3", "960 nM"],
  ["CC1=CC(C)(C)Nc2ccc3c(c21)/C(=C/c1ccccc1C)Oc1ccc(F)cc1-3", "> 1000 nM"],
  ["CC1=CC(C)(C)Nc2ccc3c(c21)/C(=C/c1ccccc1)Oc1ccc(F)cc1-3", "> 1000 nM"],
  ["COc1ccccc1/C=C1\\Oc2ccc(F)cc2-c2ccc3c(c21)C(C)=CC(C)(C)N3", "439 nM"]
]}

====

Some molecules, each annotated with its measured EC50.
TARGET OR TEST SYSTEM: Progesterone receptor (Homo sapiens, UniProt P06401)
Sequence (P06401 whole entry): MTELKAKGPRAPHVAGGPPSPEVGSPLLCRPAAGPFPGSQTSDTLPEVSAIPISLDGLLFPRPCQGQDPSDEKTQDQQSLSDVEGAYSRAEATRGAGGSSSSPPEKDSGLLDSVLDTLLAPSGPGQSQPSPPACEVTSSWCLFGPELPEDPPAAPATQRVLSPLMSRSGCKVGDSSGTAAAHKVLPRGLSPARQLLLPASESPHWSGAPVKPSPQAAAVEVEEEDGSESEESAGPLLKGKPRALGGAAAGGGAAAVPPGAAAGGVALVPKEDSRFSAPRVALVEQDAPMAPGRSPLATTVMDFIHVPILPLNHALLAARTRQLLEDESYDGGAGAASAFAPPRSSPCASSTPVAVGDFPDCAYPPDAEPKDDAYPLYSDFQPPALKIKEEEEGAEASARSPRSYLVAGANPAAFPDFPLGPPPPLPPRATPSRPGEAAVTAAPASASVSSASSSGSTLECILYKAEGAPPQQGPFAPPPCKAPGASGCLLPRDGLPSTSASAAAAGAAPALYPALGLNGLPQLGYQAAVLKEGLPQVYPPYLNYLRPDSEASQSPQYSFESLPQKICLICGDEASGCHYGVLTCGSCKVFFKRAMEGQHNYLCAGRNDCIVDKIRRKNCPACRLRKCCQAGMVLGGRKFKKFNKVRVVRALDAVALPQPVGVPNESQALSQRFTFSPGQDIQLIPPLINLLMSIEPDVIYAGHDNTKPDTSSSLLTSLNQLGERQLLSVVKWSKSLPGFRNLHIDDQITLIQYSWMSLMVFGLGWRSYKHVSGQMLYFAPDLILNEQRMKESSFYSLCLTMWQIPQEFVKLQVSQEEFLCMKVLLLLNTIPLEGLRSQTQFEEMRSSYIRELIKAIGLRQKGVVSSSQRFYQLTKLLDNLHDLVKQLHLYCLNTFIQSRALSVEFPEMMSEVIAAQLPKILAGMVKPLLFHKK
TEST NAME: Agonistic activity against human progesterone receptor in T47D breast cancer cells
Assay type: functional, cell-based

{"columns": ["SMILES NOTATION", "EC50, nM"],
 "data": [
  ["CC1=CC(C)(C)Nc2ccc3c(c21)/C(=C/c1ccco1)Oc1ccc(F)cc1-3", 21],
  ["CC1=CC(C)(C)Nc2ccc3c(c21)/C(=C/c1ccccc1OC(F)(F)F)Oc1ccc(F)cc1-3", 190],
  ["CC1=CC(C)(C)Nc2ccc3c(c21)/C(=C/c1ccccc1)Oc1ccc(F)cc1-3", 28],
  ["CC1=CC(C)(C)Nc2ccc3c(c21)/C(=C/c1ccccc1C)Oc1ccc(F)cc1-3", 19],
  ["COc1ccccc1/C=C1\\Oc2ccc(F)cc2-c2ccc3c(c21)C(C)=CC(C)(C)N3", 8],
  ["CC1=CC(C)(C)Nc2ccc3c(c21)/C(=C/c1ncccc1C)Oc1ccc(F)cc1-3", 12]
]}

====

TARGET OR TEST SYSTEM: Progesterone receptor (Homo sapiens)
TEST NAME: Binding affinity towards human progesterone receptor A isoform using progesterone as radioligand
Known Ki of a selection of compounds
RECORDED METRIC: Ki (nM)

{"columns": ["SMILES NOTATION", "EXPERIMENTAL RESULT"],
 "data": [
  ["CC1=CC(C)(C)Nc2ccc3c(c21)/C(=C/c1ccccc1F)Oc1ccc(F)cc1-3", 0.62],
  ["CC1=CC(C)(C)Nc2ccc3c(c21)/C(=C/c1ncccc1C)Oc1ccc(F)cc1-3", 0.42],
  ["CC1=CC(C)(C)Nc2ccc3c(c21)/C(=C/c1ccccc1N(C)C)Oc1ccc(F)cc1-3", 1.2],
  ["CC1=CC(C)(C)Nc2ccc3c(c21)/C(=C/c1ccccc1)Oc1ccc(F)cc1-3", 0.62],
  ["CC1=CC(C)(C)Nc2ccc3c(c21)/C(=C/c1ccncc1C)Oc1ccc(F)cc1-3", 1.4],
  ["CC1=CC(C)(C)Nc2ccc3c(c21)/C(=C/c1ccco1)Oc1ccc(F)cc1-3", 4.7]
]}

====

TARGET OR TEST SYSTEM: Progesterone receptor (Homo sapiens)
TEST NAME: Agonistic activity against human progesterone receptor in T47D breast cancer cells
Format: functional, cell-based
# if measured EC50 < 30 nM: yes  # else: no

{"columns": ["SMILES NOTATION", "QUALITATIVE LABEL"],
 "data": [
  ["CC1=CC(C)(C)Nc2ccc3c(c21)/C(=C/c1ccccc1N(C)C)Oc1ccc(F)cc1-3", "yes"],
  ["CC1=CC(C)(C)Nc2ccc3c(c21)/C(=C/c1ccccc1C)Oc1c(F)cccc1-3", "yes"],
  ["CC1=CC(C)(C)Nc2ccc3c(c21)/C(=C/c1ccccc1C(F)(F)F)Oc1ccc(F)cc1-3", "no"],
  ["CCc1ccccc1/C=C1\\Oc2ccc(F)cc2-c2ccc3c(c21)C(C)=CC(C)(C)N3", "yes"],
  ["CCCc1ccccc1/C=C1\\Oc2ccc(F)cc2-c2ccc3c(c21)C(C)=CC(C)(C)N3", "no"],
  ["CC1=CC(C)(C)Nc2ccc3c(c21)/C(=C/c1cccc(F)c1)Oc1c(F)cccc1-3", "yes"],
  ["CC1=CC(C)(C)Nc2ccc3c(c21)/C(=C/c1ccccc1C)Oc1ccccc1-3", "yes"],
  ["CC1=CC(C)(C)Nc2ccc3c(c21)/C(=C/c1ccccc1F)Oc1ccc(F)cc1-3", "yes"],
  ["CC1=CC(C)(C)Nc2ccc3c(c21)/C(=C/c1ccncc1)Oc1ccc(F)cc1-3", "yes"]
]}
